- TARGET OF ASSAY: MERTK (UniProt Q12866)
- Sequence (Q12866 whole entry, looked up): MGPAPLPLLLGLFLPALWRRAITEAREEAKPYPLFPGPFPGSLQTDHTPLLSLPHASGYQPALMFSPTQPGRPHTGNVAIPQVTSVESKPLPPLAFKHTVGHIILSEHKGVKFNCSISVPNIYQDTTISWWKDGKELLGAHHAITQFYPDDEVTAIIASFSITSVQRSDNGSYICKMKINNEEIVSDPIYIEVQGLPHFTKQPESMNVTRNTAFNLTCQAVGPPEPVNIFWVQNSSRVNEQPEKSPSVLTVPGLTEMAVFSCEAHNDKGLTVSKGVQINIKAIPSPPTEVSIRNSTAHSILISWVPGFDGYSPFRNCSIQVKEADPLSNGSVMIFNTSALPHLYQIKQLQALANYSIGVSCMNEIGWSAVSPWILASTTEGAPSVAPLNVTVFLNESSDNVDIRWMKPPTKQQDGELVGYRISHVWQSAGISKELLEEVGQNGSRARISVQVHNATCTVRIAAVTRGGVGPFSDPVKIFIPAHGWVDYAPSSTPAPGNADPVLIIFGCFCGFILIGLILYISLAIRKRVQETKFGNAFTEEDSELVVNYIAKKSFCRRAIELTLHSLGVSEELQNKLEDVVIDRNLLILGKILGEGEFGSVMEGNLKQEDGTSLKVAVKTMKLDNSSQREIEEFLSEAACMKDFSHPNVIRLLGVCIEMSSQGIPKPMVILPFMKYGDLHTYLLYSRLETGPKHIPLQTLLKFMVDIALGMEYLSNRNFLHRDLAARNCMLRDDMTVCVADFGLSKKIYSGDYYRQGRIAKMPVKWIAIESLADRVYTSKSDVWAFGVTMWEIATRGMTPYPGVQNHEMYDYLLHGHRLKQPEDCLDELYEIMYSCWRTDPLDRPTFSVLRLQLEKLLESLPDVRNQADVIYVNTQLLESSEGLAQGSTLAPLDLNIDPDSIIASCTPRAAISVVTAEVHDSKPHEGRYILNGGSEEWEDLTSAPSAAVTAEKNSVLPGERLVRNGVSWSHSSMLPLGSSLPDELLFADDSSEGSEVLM
- TEST SUMMARY: phosphorylation enrichment, bacterial display (enrichment ratio); higher = better substrate or ligand; peptides without Tyr show the background;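 further: 11-residue human phosphosite peptides and single-mutation variants displayed on the E. coli surface, counted by deep sequencing, each peptide's frequency after selection divided by its frequency in the unselected input library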;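 further: frequency after pTyr selection over input frequency; kinase dosed for 20-30% of maximal phosphorylation in three min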
QUANTITY KIND: phosphorylation enrichment

• STGSRYQPLAS [NCAPD2_Y1325] = 0.549
• GVRYIYTIDGS [DCX_Y105] = 0.405
• SGGMDYGMVGG [TNRC6B_Y1382] = 0.384
• LEGKEYRMSGE [KRT3_Y511_E509K] = 0.439
• QRRLVYYEGGA [RYR1_Y245] = 1.15
• HSHTRYERNIE [F2_Y434_R431H] = 0.5
• AAQNCYKVTNG [TPI1_Y105] = 0.411
• DWLRRYLENGK [HLA-A_Y195_E190D] = 0.864
• MSNFAYVKREV [SCN1A_Y1694] = 0.471
• EYYENYIEELK [PARP4_Y218_F215Y] = 0.38

These measurements were taken from the supplement of paper PMC10065799.
